experimental system: T1, Clostripain, P09870
T1 chain: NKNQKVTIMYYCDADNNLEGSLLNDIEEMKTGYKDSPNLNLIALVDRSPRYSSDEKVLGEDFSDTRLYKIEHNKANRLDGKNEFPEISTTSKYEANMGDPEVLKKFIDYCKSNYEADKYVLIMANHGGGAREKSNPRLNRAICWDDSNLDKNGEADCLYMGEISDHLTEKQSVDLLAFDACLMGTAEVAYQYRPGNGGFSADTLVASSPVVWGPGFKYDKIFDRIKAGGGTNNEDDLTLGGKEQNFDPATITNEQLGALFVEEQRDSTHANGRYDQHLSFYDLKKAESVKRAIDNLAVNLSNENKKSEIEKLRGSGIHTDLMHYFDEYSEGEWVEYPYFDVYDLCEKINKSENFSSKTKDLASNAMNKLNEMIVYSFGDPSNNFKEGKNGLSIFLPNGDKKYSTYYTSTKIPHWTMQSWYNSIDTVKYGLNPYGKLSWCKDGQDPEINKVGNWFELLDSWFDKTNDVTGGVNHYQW
method description: cell-based or functional assay
Square brackets hold non-standard residues; d marks the D form. * marks the point of attachment. Hydrocinnamoyl = O=C(CCc1ccccc1)*; CH:CH‑COOEt = CCOC(=O)/C=C/*; AOrn = not defined here
Threshold-based label: k2 under 20000 M⁻¹ s⁻¹ gives fulfilled, k2 not under 20000 M⁻¹ s⁻¹ gives not fulfilled.

**Query** Check if k2 falls below 20000 M⁻¹ s⁻¹ for Hydrocinnamoyl-Leu-[AOrn]-{CH:CH‑CON(CH2Ph)2} (reading uncertain) [PhPr-Leu-AOrn-CH═CH-CON(CH2Ph)2] .
**Result** fulfilled

**Query** Now consider LR (modifications not checked) [PhPr-Leu-AArg-CH═CH-COOEt] and answer again.
**Result** not fulfilled

**Query** Now consider LK (modifications not checked) [PhPr-Leu-ALys-CH═CH-CON(Me)CH2-1-naphthyl] and answer again.
**Result** fulfilled

**Query** Now consider LK (modifications not checked) [PhPr-Leu-ALys-CH═CH-COOEt] and answer again.
**Result** not fulfilled

**Query** Now consider LK (modifications not checked) [PhPr-Leu-ALys-CH═CH-CON(Bzl)-p-CH2C6H4F] and answer again.
**Result** fulfilled

**Query** Now consider Hydrocinnamoyl-Leu-[AOrn]-{CH:CH‑COOEt} (reading uncertain; also: printed as PhPr-Leu-AOrn-CH═CH-COOEt) [PhPr-Leu-AOrn-CH═CH-COOEt] and answer again.
**Result** fulfilled

**Query** Now consider LK (modifications not checked) [PhPr-Leu-ALys-CH═CH-CON(Bzl)CH2-2-naphthyl] and answer again.
**Result** fulfilled

**Query** Now consider LK (modifications not checked) [PhPr-Leu-ALys-CH═CH-CON(4H-quinoline)] and answer again.
**Result** fulfilled

The origin of these recorded values is patent US20050256058A1.
